Measured GI50, listed per entry for reference.
Test system: BT-549 breast
Test: NCI tumour cell line growth inhibition, 48 h

{"compound": "CCOc1cc2ncc(C#N)c(Nc3ccc(F)c(Cl)c3)c2cc1NC(=O)CC1CCSS1 (configuration not stated)", "GI50": "1500 nM"}
{"compound": "C=C1CC[C@@H]2C(C)(C)[C@H](O)CC[C@@]2(C)[C@@H]1COc1ccc2ccc(=O)oc2c1", "GI50": "20600 nM"}
{"compound": "O=C(O)c1ccc2nc(-c3ccc(OCCCCCOc4ccc(-c5nc6ccc(C(=O)O)cc6[nH]5)cc4)cc3)[nH]c2c1", "GI50": "> 100000 nM"}
{"compound": "CC(=O)Oc1cn(-c2ccc(Cl)cc2)nc1C1=NN(C(C)=O)C(c2ccc(F)cc2F)O1 (configuration not stated)", "GI50": "19500 nM"}
{"compound": "N#C/C(=C\\c1ccc2c(c1)OCO2)n1nnc2ccccc21", "GI50": "938 nM"}
{"compound": "O=S(=O)(Nc1cccc(Cl)c1)c1ccc(-c2cnc(C3CC3)o2)cc1", "GI50": "1250 nM"}
{"compound": "Cn1ccnc1C(=O)/C=C/c1ccc(C(=O)Nc2ccc(F)cc2)cc1", "GI50": "667 nM"}
{"compound": "O=C1Nc2ccccc2/C1=C/C(=N/c1nnc(-c2ccc(Cl)cc2)s1)c1ccccc1", "GI50": "1790 nM"}
{"compound": "Cc1cc(Cl)ccc1Nc1nc(C(F)(F)F)ccc1C(=O)N/N=C/c1cccc(O)c1", "GI50": "861 nM"}
{"compound": "N#Cc1cc2c(cc1Cl)SC(=Nc1ccccc1)N(S(=O)(=O)c1ccc(Cl)cc1)S2(=O)=O", "GI50": "13400 nM"}
{"compound": "COc1cc(/C=C\\c2cc(/C=C\\c3ccc(O)c(OC)c3)n(C(=O)COc3ccc(Cl)cc3Cl)n2)ccc1O", "GI50": "526 nM"}
{"compound": "Cc1ccc(Cl)cc1Nc1nc(C(F)(F)F)ccc1C(N)=O", "GI50": "4530 nM"}

This collection of values is drawn from PubChem BioAssay (NCI).
